Measured values drawn from patent US20240316059A1 for this set.

// values below are reported IC50
# System: MM.1S cells
# experiment summary: In vitro cytotoxic potency in MM.1S cell viability assay (CellTiter-Glo)
# Format: cell-based, human
# condition info: Homo sapiens, MM1.S, 72 h, read-out: MM.1S IC50
Hi! Could you send only the number? It should be in nM, unit omitted.

Known results for molecules:
- smiles data: "CCOC(=O)[C@H](CCc1nc2cc(N(CCCl)CCCl)ccc2n1C)NC(=O)[C@@H](N)C(C)C"
  assayed system: "MM.1S cells"
  observed measurement: 22.5
- smiles data: "CCOC(=O)[C@H](CC(C)C)NC(=O)[C@H](CCc1nc2cc(N(CCCl)CCCl)ccc2n1C)NC"
  assayed system: "MM.1S cells"
  observed measurement: 14.3
- smiles data: "CCOC(=O)[C@@H](N)CCc1nc2cc(N(CCCl)CCCl)ccc2n1C.Cl.Cl"
  assayed system: "MM.1S cells"
  observed measurement: 52

Then this molecule:
Tell me its IC50 given CCOC(=O)[C@H](CCc1nc2cc(N(CCCl)CCCl)ccc2n1C)NC(=O)[C@@H](N)Cc1ccc(F)cc1 as the entry. 14.4
